Reported Ranking score by item:
biological target: UniProtKB Q14973; test: Screening taurocholate uptake assay (96-well, [14C]taurocholate, 10 µM drug); details: combined ranking from functional and binding assay B-scores
Counter-ions that a name gives are not always drawn.
Respond numerically, and do not add a unit to the figure.

For orientation, consider the following solved cases.
molecule: CN(C)CC/C=C1/c2ccccc2COc2ccc(CC(=O)O)cc21 [Olopatadine hydrochloride]
target-system: UniProtKB Q14973
Ranking score: 1048.28
--
molecule: COc1ccc(C2CNC(=O)C2)cc1OC1CCCC1 (centres unmarked)
target-system: UniProtKB Q14973
Ranking score: 872.569
--
molecule: O=C(O)CNC(=O)C(CS)Cc1ccccc1 (centres unmarked)
target-system: UniProtKB Q14973
Ranking score: 959.982
--
molecule: c1ccc2[nH]c(-c3cscn3)nc2c1
target-system: UniProtKB Q14973
Ranking score: 925.084

From here, focus on the item given below.
q: Please give measured Ranking score of the following entry: Cl.NCC(O)c1ccc(O)cc1 (racemic) [(+,-)-Octopamine hydrochloride]
a: 930.549

###

Molecular target: human NTCP (Homo sapiens, UniProt Q14973)
Sequence (Q14973 1-349): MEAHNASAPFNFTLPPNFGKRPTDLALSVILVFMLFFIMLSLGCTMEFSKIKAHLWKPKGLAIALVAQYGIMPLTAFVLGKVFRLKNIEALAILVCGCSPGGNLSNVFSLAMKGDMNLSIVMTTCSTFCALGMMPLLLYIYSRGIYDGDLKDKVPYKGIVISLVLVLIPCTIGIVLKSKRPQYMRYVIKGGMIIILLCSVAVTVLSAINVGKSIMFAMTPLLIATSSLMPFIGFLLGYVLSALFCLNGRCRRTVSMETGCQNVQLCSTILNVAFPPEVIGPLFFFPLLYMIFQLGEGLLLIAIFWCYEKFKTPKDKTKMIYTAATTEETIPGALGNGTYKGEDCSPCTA
Test: Screening fluorescent competitive Myrcludex B-FITC binding assay (96-well, 10 µM drug)
Conditions: Prestwick library screen, 10 µM drug; B-score of Myrcludex B-FITC binding
Where a name gives a salt, the structure may show the parent alone.
reported-metric: B-score binding assay
Respond numerically, and do not add a unit to the figure.

For orientation, consider the following solved cases.
molecule: COc1ccc2[nH]cc(CCNC(C)=O)c2c1 [Melatonin]
B-score binding assay: 0.248

molecule: c1ccc(CC2=NCCN2)cc1 [Tolazoline hydrochloride]
B-score binding assay: 0.03

molecule: CN1CCN(CCCN2c3ccccc3Sc3ccc(S(=O)(=O)N(C)C)cc32)CC1.CS(=O)(=O)O.CS(=O)(=O)O [Thioproperazine dimesylate]
B-score binding assay: 1.771

molecule: NS(=O)(=O)c1cc2c(cc1Cl)N=CNS2(=O)=O [Chlorothiazide]
B-score binding assay: 0.263

q: Recall the reported B-score binding assay of CCSc1ccc2c(c1)N(CCCN1CCN(C)CC1)c1ccccc1S2.O=C(O)CC(O)C(=O)O.O=C(O)CC(O)C(=O)O [Thiethylperazine dimalate] when tested on human NTCP (Homo sapiens, UniProt Q14973).
a: 3.252

###

molecular target: human NTCP (Homo sapiens); test: Screening taurocholate uptake assay (96-well, [14C]taurocholate, 10 µM drug); settings: screening taurocholate uptake, 10 µM drug
reported-metric: B-score functional assay
Respond numerically, and do not add a unit to the figure.

molecule: NS(=O)(=O)c1cc(C2(O)NC(=O)c3ccccc32)ccc1Cl (centres unmarked)
target-system: human NTCP (Homo sapiens)
B-score functional assay: -1.121

From here, focus on the item given below.
q: Please give measured B-score functional assay of the following entry: COc1ccccc1OCC(O)CO (centres unmarked)
a: 0.275

###

molecular target: UniProtKB Q14973; experiment: Screening fluorescent competitive Myrcludex B-FITC binding assay (96-well, 10 µM drug); conditions: Prestwick library screen, 10 µM drug; B-score of Myrcludex B-FITC binding
Where a name gives a salt, the structure may show the parent alone.
reported-metric: B-score binding assay

q: Please give measured B-score binding assay of the following entry: `Nc1ccc(S(=O)(=O)Nc2ncccn2)cc1`
a: 1.389

q: Please give measured B-score binding assay of the following entry: c1ccc([C@H]2CN3CCSC3=N2)cc1 [Levamisole hydrochloride]
a: 1.834

###

test: in vitro; details: human
reported-metric: viability at 2 h, 10 µM
# answer = value followed by unit

q: Please give measured viability at 2 h, 10 µM of the following entry: `O=C(O)c1cc(/N=N/c2ccc(S(=O)(=O)Nc3ccccn3)cc2)ccc1O`
a: 101%

###

assay: in vitro; conditions: human, U2OS-HA-hNTCP cells
reported-metric: viability at 2 h, 10 µM (%)
I only need the number, in %, no unit after it.

compound: O=C(O)c1cc(/N=N/c2ccc(S(=O)(=O)Nc3ccccn3)cc2)ccc1O
unit-label: %
viability at 2 h, 10 µM: 90.6
//
compound: CC(C)c1ccc2oc3nc(N)c(C(=O)O)cc3c(=O)c2c1
unit-label: %
viability at 2 h, 10 µM: 102
//
compound: CN(CCOc1ccc(CC2SC(=O)NC2=O)cc1)c1ccccn1 (stereo not shown)
unit-label: %
viability at 2 h, 10 µM: 106

q: Please give measured viability at 2 h, 10 µM of the following entry: `Cc1c(Cl)cccc1Nc1ccccc1C(=O)O`
a: 118

q: Please give measured viability at 2 h, 10 µM of the following entry: `COc1cc(C(=O)NS(=O)(=O)c2ccccc2C)ccc1Cc1cn(C)c2ccc(NC(=O)OC3CCCC3)cc12`
a: 87.1

q: Please give measured viability at 2 h, 10 µM of the following entry: `O=C(O)c1ccccc1Nc1cccc(C(F)(F)F)c1`
a: 118

q: Please give measured viability at 2 h, 10 µM of the following entry: `Cc1cc(-n2c(=O)[nH]c(=O)n(C)c2=O)ccc1Oc1ccc(SC(F)(F)F)cc1`
a: 109

###

target: human NTCP (Homo sapiens, UniProt Q14973); assay: Screening fluorescent competitive Myrcludex B-FITC binding assay (96-well, 10 µM drug); settings: Prestwick library screen, Myrcludex B-FITC binding, 10 µM drug
Where a name gives a salt, the structure may show the parent alone.
I would appreciate it if you labelled entries Met when B-score binding assay is -0.1 or higher, otherwise Not met.

compound: CC1CNc2c(cccc2S(=O)(=O)N[C@@H](CCCNC(=N)N)C(=O)N2CC[C@@H](C)C[C@@H]2C(=O)O)C1 (stereo partly drawn)
label-value: Met

q: Is it the case that CN(C)CCc1c[nH]c2ccc(Cn3cncn3)cc12 [Rizatriptan benzoate] has B-score binding assay reaching or exceeding -0.1?
a: Met

q: Is it the case that COc1ccc(C[C@@H](C)NC[C@H](O)c2ccc(O)c(NC=O)c2)cc1.COc1ccc(C[C@@H](C)NC[C@H](O)c2ccc(O)c(NC=O)c2)cc1.O=C(O)/C=C/C(=O)O [Formoterol fumarate] has B-score binding assay reaching or exceeding -0.1?
a: Not met

q: Is it the case that `Cc1onc(-c2ccccc2)c1-c1ccc(S(N)(=O)=O)cc1` has B-score binding assay reaching or exceeding -0.1?
a: Met

q: Is it the case that `O=C(O)c1cccnc1Nc1cccc(C(F)(F)F)c1` has B-score binding assay reaching or exceeding -0.1?
a: Met

q: Is it the case that CN(C/C=C/c1ccccc1)Cc1cccc2ccccc12 [Naftifine hydrochloride] has B-score binding assay reaching or exceeding -0.1?
a: Not met

q: Is it the case that `COc1ccc2c(c1)c(CC(=O)OCC(=O)O)c(C)n2C(=O)c1ccc(Cl)cc1` has B-score binding assay reaching or exceeding -0.1?
a: Met

q: Is it the case that CC(C)(C)NC(=O)[C@@H]1CN(Cc2cccnc2)CCN1C[C@@H](O)C[C@@H](Cc1ccccc1)C(=O)N[C@H]1c2ccccc2C[C@H]1O [Indinavir sulfate] has B-score binding assay reaching or exceeding -0.1?
a: Met

q: Is it the case that CO/N=C(\C(=O)N[C@@H]1C(=O)N2C(C(=O)O)=C(COC(N)=O)CS[C@H]12)c1ccco1 [Cefuroxime sodium salt] has B-score binding assay reaching or exceeding -0.1?
a: Not met

q: Is it the case that `C[C@@H]1CC[C@H]2[C@@H](C)C(=O)O[C@@H]3O[C@@]4(C)CC[C@@H]1[C@]32OO4` has B-score binding assay reaching or exceeding -0.1?
a: Not met

q: Is it the case that CCCCc1oc2ccccc2c1C(=O)c1cc(I)c(OCCN(CC)CC)c(I)c1 [Amiodarone hydrochloride] has B-score binding assay reaching or exceeding -0.1?
a: Met

q: Is it the case that `CCCCOC(=O)c1ccc(O)cc1` has B-score binding assay reaching or exceeding -0.1?
a: Not met

q: Is it the case that O=C(O)C(O)C(O)C(=O)O.O=C(c1ccc(F)cc1)C1CCN(CCn2c(=O)[nH]c3ccccc3c2=O)CC1 [Ketanserin tartrate hydrate] has B-score binding assay reaching or exceeding -0.1?
a: Met

q: Is it the case that `COc1ccccc1Oc1c(NS(=O)(=O)c2ccc(C(C)(C)C)cc2)nc(-c2ncccn2)nc1OCCO` has B-score binding assay reaching or exceeding -0.1?
a: Met

q: Is it the case that CC(C)[N+](C)(CCC(C(N)=O)(c1ccccc1)c1ccccc1)C(C)C [Isopropamide iodide] has B-score binding assay reaching or exceeding -0.1?
a: Met
